# Measured target: Human immunodeficiency virus type 1 reverse transcriptase (Human immunodeficiency virus 1, UniProt Q72547, L100I)
# Method notes: Inhibition of HIV1 RT L100I mutant
Measure name: IC50 (µmol)
API: value field is a number in µmol; no unit string.

Example entries begin here.
[[record]]
compound = "CCC1(c2cccc(Cl)c2)Oc2ccccc2-n2cccc2C1=O (racemic)"
measure_name = "IC50"
numeric_value = 0.6

[[record]]
compound = "CCC1(c2cccc(COc3ccccc3)c2)Oc2ccccc2-n2cccc2C1=O (racemic)"
measure_name = "IC50"
numeric_value = 1.5

[[record]]
compound = "CCC1(c2ccc(COc3ccccc3Cl)cc2)Oc2ccccc2-n2cccc2C1=O (racemic)"
measure_name = "IC50"
numeric_value = 1.4


GET /values?readout=IC50&item= CCC1(c2ccc(COc3cccnc3)cc2)Oc2ccccc2-n2cccc2C1=O (racemic)
0.3

// query IC50 value for entry CCC1(c2ccc(COc3ccccc3)cc2)Oc2ccccc2-n2cccc2C1=O (racemic)
0.2

Which IC50 reading was recorded for the compound CCC1(c2cccc(OC)c2)Oc2ccccc2-n2cccc2C1=O (racemic) ?
0.011

// query IC50 value for entry CCC1(c2ccc(CNc3cccc(F)c3)cc2)Oc2ccccc2-n2cccc2C1=O (racemic)
2.5
